procedure_text: Cytotoxicity against human HCT15 cells assessed as cell viability at 10 uM after 72 hrs by sulforhodamine B assay relative to control
Type: functional
particulars: HCT-15, 72 h, read-out: Activity
viability at 10 µM for assorted molecules
Please reply with the bare figure in % and do not write the unit itself.

COc1cc(NC(=O)C2Cc3ccccc3O2)cc(OC)c1 (configuration not stated) :: 91

Query :: Using the record for O=C(Nc1cc(C(F)(F)F)ccc1C(F)(F)F)C1Cc2ccccc2O1 (configuration not stated) , report its viability at 10 µM.
Result :: 81

Query :: Another molecule to check: COc1cccc(NC(=O)C2Cc3ccccc3O2)c1 (configuration not stated)
Result :: 99

Query :: Similarly, O=C(Nc1ccccc1O)c1cc2ccccc2o1 ?
Result :: 58

Query :: Also, COc1ccccc1NC(=O)c1cc2ccccc2o1 please.
Result :: 94

Query :: Same read-out for Cc1ccccc1NC(=O)C1Cc2ccccc2O1 (configuration not stated) ?
Result :: 88

Query :: Could you do the same for O=C(Nc1ccccc1C(F)(F)F)c1cc2ccccc2o1 , please?
Result :: 99

Query :: Next molecule: O=C(Nc1cccc([N+](=O)[O-])c1)c1cc2ccccc2o1
Result :: 88

Query :: Another: COc1cc2c(cc1O)CCC(C(=O)Nc1ccccc1)O2 (configuration not stated)
Result :: 105

Query :: // query: Cc1ccc(NC(=O)C2Cc3ccccc3O2)cc1C (configuration not stated)
Result :: 97

Query :: How about this molecule: COc1cc(NC(=O)c2cc3ccccc3o2)cc(OC)c1
Result :: 95

Query :: Further, for O=C(Nc1ccc(C(F)(F)F)cc1)C1Cc2ccccc2O1 (configuration not stated) ?
Result :: 96

Query :: Similarly, Cc1ccc(NC(=O)c2cc3ccccc3o2)cc1 ?
Result :: 82

Query :: And what about the molecule O=C(Nc1cccc([N+](=O)[O-])c1)C1Cc2ccccc2O1 (configuration not stated) ?
Result :: 83

Query :: Entry O=C(Nc1ccccc1[N+](=O)[O-])c1cc2ccccc2o1 please
Result :: 73

Query :: Try this molecule too: O=C(Nc1cc(C(F)(F)F)cc(C(F)(F)F)c1)c1cc2ccccc2o1
Result :: 98

Query :: Ok, now Cc1cccc(NC(=O)c2cc3ccccc3o2)c1
Result :: 87

----------
tested_target: Nuclear factor NF-kappa-B complex (Homo sapiens) (UniProt Q00653+P19838+Q04206)
Sequence (P19838 whole entry, looked up): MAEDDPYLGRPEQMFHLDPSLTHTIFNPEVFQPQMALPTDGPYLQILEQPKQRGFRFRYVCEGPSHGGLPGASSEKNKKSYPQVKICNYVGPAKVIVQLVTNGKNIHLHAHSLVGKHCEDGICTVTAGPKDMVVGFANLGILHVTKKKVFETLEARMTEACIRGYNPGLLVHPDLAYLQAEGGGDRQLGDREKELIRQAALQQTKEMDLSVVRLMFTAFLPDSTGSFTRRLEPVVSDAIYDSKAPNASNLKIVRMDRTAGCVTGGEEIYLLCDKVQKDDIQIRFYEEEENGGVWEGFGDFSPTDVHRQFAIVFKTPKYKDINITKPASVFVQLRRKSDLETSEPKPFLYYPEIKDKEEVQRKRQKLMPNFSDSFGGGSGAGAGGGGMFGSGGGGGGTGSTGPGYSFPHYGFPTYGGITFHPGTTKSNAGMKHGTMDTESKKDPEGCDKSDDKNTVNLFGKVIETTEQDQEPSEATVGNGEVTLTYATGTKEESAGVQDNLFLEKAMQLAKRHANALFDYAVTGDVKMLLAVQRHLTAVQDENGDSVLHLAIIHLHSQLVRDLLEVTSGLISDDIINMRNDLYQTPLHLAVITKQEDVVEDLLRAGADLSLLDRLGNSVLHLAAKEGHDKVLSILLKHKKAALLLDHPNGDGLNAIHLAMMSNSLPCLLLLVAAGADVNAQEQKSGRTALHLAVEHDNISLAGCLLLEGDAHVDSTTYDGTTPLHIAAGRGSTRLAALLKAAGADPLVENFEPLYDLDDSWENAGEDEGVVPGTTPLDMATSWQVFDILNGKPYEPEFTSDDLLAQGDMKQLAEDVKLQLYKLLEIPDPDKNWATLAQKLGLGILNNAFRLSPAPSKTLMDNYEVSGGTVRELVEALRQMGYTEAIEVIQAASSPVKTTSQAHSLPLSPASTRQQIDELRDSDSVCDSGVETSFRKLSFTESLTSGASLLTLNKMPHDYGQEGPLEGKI
Sequence (Q00653 whole entry, looked up): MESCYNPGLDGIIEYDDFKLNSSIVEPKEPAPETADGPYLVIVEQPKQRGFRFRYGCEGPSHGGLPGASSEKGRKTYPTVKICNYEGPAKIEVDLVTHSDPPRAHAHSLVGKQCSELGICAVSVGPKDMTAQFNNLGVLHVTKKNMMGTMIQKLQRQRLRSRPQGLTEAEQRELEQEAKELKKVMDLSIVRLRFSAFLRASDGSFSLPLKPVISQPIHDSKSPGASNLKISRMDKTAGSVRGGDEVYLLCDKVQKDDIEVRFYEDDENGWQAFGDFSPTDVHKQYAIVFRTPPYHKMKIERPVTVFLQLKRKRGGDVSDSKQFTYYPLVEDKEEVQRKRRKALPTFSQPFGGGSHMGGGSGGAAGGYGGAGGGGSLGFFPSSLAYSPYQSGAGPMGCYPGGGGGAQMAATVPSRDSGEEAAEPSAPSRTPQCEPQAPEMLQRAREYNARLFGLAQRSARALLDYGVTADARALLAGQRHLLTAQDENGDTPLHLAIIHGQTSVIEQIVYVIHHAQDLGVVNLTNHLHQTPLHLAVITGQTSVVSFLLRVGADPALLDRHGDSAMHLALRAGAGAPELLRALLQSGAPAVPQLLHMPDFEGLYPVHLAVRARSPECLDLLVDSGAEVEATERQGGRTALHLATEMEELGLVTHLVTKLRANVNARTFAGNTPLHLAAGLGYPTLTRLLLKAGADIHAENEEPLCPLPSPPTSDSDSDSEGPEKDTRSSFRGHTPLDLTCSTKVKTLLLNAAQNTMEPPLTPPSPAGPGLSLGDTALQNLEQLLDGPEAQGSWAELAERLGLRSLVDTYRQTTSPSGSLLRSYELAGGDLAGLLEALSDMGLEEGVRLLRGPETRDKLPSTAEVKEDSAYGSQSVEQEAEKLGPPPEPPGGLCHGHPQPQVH
Sequence (Q04206 whole entry, looked up): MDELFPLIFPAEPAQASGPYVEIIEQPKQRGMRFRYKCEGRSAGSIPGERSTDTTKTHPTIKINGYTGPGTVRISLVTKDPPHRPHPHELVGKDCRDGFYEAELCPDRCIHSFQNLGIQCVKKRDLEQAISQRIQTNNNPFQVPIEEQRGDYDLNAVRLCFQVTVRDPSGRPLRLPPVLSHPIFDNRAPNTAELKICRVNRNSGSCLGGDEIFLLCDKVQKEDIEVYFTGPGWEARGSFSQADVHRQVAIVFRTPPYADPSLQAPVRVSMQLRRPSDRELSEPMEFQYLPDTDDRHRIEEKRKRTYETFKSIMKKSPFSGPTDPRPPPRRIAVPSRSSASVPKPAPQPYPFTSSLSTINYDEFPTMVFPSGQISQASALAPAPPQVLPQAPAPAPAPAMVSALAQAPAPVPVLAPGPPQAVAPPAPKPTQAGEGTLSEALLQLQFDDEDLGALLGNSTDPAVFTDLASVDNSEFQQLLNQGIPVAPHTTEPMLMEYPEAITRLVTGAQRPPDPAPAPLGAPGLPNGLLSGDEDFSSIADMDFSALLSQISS
procedure_text: Inhibition of NF-kappaB (unknown origin) transcriptional activity in LPS-induced mouse RAW264.7 cells at 30 uM after 1 hr by secreted alkaline phosphatase assay relative to control
Assay type: cell-based
property: inhibition (%)
Quick reminder: number only, in %, skip the unit.

Some solved cases for reference:
O=C(Nc1ccccc1C(F)(F)F)C1Cc2ccccc2O1 (stereo unspecified) :: 44.5
O=C(Nc1ccccc1Cl)C1Cc2ccccc2O1 (stereo unspecified) :: 37.5
O=C(Nc1cccc([N+](=O)[O-])c1)c1cc2ccccc2o1 :: 11

Query :: Need inhibition of COc1ccc(NC(=O)C2Cc3ccccc3O2)cc1 (stereo unspecified) , thanks.
Result :: 22.5

Query :: Same for Cc1cc(C)cc(NC(=O)C2Cc3ccccc3O2)c1 (stereo unspecified)
Result :: 34

Query :: Would you mind doing O=C(Nc1ccc(O)cc1)c1cc2ccccc2o1 as well?
Result :: 62

Query :: Continue with O=C(Nc1ccc(Cl)c(Cl)c1)c1cc2ccccc2o1
Result :: 40

Query :: Now consider O=C(Nc1ccc(Cl)cc1)c1cc2ccccc2o1 and answer again.
Result :: 43

Query :: Try the molecule Cc1ccccc1NC(=O)C1Cc2ccccc2O1 (stereo unspecified)
Result :: 38

Query :: Entry O=C(Nc1cc(Cl)cc(Cl)c1)C1Cc2ccccc2O1 (stereo unspecified) please
Result :: 75

Query :: What about O=C(Nc1cccc(C(F)(F)F)c1)C1Cc2ccccc2O1 (stereo unspecified) ?
Result :: 30.5

Query :: Would you kindly repeat that for COc1cccc(NC(=O)c2cc3ccccc3o2)c1 ?
Result :: 34.5

Query :: Field entry: O=C(Nc1ccc(C(F)(F)F)cc1)c1cc2ccccc2o1
Result :: 34.5

Query :: Cool, now COc1cccc(NC(=O)C2Cc3ccccc3O2)c1 (stereo unspecified)
Result :: 16.5

Query :: Next molecule: O=C(Nc1ccc(Cl)c(Cl)c1)C1Cc2ccccc2O1 (stereo unspecified)
Result :: 65

Query :: Similarly, O=C(Nc1ccccc1O)c1cc2ccccc2o1 ?
Result :: 23

Query :: And then O=C(Nc1ccccc1[N+](=O)[O-])c1cc2ccccc2o1 , what is it?
Result :: 25.5
